Study System: JNK2 (Homo sapiens)
Sequence (P45984 whole entry, species assumed): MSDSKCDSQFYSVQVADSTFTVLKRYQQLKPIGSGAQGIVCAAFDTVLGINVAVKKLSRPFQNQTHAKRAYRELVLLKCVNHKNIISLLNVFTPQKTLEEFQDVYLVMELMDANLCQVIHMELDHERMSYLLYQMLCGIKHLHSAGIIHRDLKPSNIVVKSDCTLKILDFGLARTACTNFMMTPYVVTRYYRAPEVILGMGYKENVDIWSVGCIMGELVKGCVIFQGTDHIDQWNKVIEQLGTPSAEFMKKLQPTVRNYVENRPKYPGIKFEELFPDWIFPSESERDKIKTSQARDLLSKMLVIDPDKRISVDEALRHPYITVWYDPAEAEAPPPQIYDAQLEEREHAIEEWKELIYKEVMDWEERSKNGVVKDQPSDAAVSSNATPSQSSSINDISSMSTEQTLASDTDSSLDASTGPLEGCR
Method Notes: Kinase profiling JNK2
Assay type: biochemical
Condition Summary: 100 micromolar inhibitor concentration; 100 is no change; read-out: residual kinase activity, JNK2
Here, each record is paired with measured remaining activity at 100 µM data.
Output spec: scalar in %, unitless text.

Worked examples, 3 compounds total:
>  <Record Smiles>
CC(=O)Nc1nc2cc(C(F)(F)F)ccc2s1

>  <Study System>
JNK2 (Homo sapiens)

>  <Readout Name>
remaining activity at 100 µM

>  <Test Value>
111

$$$$
>  <Record Smiles>
CC(=O)Nc1nc2ccc(O)cc2s1

>  <Study System>
JNK2 (Homo sapiens)

>  <Readout Name>
remaining activity at 100 µM

>  <Test Value>
82

$$$$
>  <Record Smiles>
CC(=O)Nc1nc2ccc(C#N)cc2s1

>  <Study System>
JNK2 (Homo sapiens)

>  <Readout Name>
remaining activity at 100 µM

>  <Test Value>
82

$$$$

Q. What value of measured remaining activity at 100 µM is listed for CC(=O)Nc1nc2cc(F)ccc2s1 ?
A. 99

Q. What value of measured remaining activity at 100 µM is listed for COc1ccc2sc(NC(C)=O)nc2c1 ?
A. 92

Q. Suppose we examine the compound CC(=O)Nc1nc2ccc(C(F)(F)F)cc2s1 ; what remaining activity at 100 µM value has been reported?
A. 87

----------
Study System: ASK1 (Homo sapiens, UniProt Q99683)
Sequence (Q99683 1-1374): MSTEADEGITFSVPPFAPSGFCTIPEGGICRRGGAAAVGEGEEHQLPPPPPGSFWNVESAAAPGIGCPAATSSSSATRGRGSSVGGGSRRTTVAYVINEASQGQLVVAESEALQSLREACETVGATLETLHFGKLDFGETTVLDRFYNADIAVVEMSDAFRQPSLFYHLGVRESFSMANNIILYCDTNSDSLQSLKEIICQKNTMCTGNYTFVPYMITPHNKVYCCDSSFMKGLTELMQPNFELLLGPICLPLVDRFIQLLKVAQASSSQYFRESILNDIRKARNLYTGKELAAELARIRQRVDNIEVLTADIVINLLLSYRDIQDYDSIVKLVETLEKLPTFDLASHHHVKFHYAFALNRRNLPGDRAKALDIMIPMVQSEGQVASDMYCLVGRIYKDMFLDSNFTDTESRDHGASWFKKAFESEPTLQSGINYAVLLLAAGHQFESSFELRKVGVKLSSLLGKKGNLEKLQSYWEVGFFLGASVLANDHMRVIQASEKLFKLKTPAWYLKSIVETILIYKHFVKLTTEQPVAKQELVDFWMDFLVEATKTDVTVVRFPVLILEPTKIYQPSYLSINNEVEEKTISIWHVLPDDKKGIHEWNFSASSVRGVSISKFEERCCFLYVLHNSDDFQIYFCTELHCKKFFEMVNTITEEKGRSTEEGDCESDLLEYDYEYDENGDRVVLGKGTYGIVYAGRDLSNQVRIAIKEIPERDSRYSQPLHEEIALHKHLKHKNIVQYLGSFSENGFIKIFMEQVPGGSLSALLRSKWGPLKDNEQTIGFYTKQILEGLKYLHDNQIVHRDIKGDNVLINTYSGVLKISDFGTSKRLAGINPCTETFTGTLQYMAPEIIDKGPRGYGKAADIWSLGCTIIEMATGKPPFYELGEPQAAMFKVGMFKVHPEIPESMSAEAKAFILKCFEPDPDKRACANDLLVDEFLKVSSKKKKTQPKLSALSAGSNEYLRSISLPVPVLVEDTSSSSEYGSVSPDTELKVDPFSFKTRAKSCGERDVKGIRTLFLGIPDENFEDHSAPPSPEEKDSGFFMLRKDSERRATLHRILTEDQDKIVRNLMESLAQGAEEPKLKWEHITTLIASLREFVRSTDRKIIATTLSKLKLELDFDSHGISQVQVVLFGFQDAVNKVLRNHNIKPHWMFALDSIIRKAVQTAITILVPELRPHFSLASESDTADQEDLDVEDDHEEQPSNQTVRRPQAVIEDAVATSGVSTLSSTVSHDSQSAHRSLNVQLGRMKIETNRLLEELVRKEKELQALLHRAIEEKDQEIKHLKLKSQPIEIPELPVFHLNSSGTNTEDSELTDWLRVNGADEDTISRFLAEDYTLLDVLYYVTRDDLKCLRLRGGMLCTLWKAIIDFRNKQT
Method Notes: Kinase profiling ASK1
Assay type: biochemical
Condition Summary: 100 micromolar inhibitor concentration; 100 is no change; read-out: residual kinase activity, ASK1
remaining activity at 100 µM overview
State the answer as a number, implicitly in %.

>  <Record Smiles>
CC(=O)Nc1nc2ccc(C(F)(F)F)cc2s1

>  <remaining activity at 100 µM [%]>
35

$$$$
>  <Record Smiles>
CC(=O)Nc1nc2ccc(O)cc2s1

>  <remaining activity at 100 µM [%]>
53

$$$$
>  <Record Smiles>
CC(=O)Nc1nc2cc(C(F)(F)F)ccc2s1

>  <remaining activity at 100 µM [%]>
83

$$$$

Q. Which remaining activity at 100 µM is reported for this compound? CC(=O)Nc1nc2ccc(C#N)cc2s1
A. 18

Q. I would be grateful if you could share the reported remaining activity at 100 µM for COc1ccc2sc(NC(C)=O)nc2c1 .
A. 97

Q. Which remaining activity at 100 µM is listed for CC(=O)Nc1nc2cc(F)ccc2s1 ?
A. 54
